These measurements were taken from patent US4604380A.

In what follows, each item is paired with its MIC for Staphylococcus aureus X1.1.

Molecule: CCC1OC(=O)CC(O)C(C)C(OC2OC(C)C(O)C(N(C)C)C2O)C(CC=O)CC(C)C(=O)C=CC(C)=CC1CN1CC2CCC(CC2)C1 (stereo not shown) [Compound 17, 23-(3-azabicyclo[3.2.2]nonan-3-yl)-OMT]
MIC [mg/L]: 0.5
--
Molecule: CCC1OC(=O)CC(O)C(C)C(OC2OC(C)C(O)C(N(C)C)C2O)C(CC=O)CC(C)C(=O)C=CC(C)=CC1CN1CCC2CCCCC2C1 (stereo not shown)
MIC [mg/L]: 0.5
--
Molecule: CCC1OC(=O)CC(O)C(C)C(OC2OC(C)C(O)C(N(C)C)C2O)C(CC=O)CC(C)C(=O)C=CC(C)=CC1CN1CCc2ccccc2C1 (stereo not shown)
MIC [mg/L]: 0.25
--
Molecule: CCC1OC(=O)CC(O)C(C)C(OC2OC(C)C(O)C(N(C)C)C2O)C(CC=O)CC(C)C(=O)C=CC(C)=CC1CN(Cc1ccccc1)C1CC2CCC1C2 (stereo not shown)
MIC [mg/L]: 0.25
--
Molecule: CCC1OC(=O)CC(O)C(C)C(OC2OC(C)C(O)C(N(C)C)C2O)C(CC=O)CC(C)C(=O)C=CC(C)=CC1CN1CCC2(CCCCC2)CC1 (stereo not shown)
MIC [mg/L]: 0.5
--
Molecule: CCC1OC(=O)CC(O)C(C)C(OC2OC(C)C(O)C(N(C)C)C2O)C(CC=O)CC(C)C(=O)C=CC(C)=CC1CN1CC2CC=CCC2C1 (stereo not shown)
MIC [mg/L]: 0.25
--
Molecule: CCC1OC(=O)CC(O)C(C)C(OC2OC(C)C(O)C(N(C)C)C2O)C(CC=O)CC(C)C(=O)C=CC(C)=CC1CN1CCC2CCCCC21 (stereo not shown)
MIC [mg/L]: 0.25
